- SUBJECT OF TEST: human fibroblasts derived MMP-1 (type I collagenase) (Homo sapiens)
- Construct: human fibroblasts derived MMP-1 (Yagai Co. Ltd.) as enzyme; purchased Yagai Co. Ltd; host or cells: human fibroblasts
- Sequence (P03956 100-469): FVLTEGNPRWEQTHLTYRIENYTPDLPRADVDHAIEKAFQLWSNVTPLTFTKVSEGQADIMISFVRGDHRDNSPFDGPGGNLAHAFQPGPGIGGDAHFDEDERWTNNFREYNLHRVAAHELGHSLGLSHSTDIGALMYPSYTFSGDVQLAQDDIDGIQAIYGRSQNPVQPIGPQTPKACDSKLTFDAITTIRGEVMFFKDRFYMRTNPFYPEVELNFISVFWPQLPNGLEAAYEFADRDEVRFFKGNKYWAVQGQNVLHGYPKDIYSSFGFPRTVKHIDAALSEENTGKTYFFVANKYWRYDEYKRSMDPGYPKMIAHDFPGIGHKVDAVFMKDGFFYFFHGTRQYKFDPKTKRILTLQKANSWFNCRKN
- TEST DESCRIPTION: MMP-1 (type I collagenase) inhibitory activities, fluorogenic substrate enzyme assay
- Format: biochemical
- APPLIED CONDITIONS: at 10^−5M; NE means no effect; read-out: MMP-1 inhibition percent
ASSAY READOUT: inhibition at 10 µM (%)

{"COMPOUND SMILES": "COc1ccc(-c2ccccc2S(=O)(=O)N2CC[C@@H](NC(=O)CCC(C)C)C[C@@H]2C(=O)NO)cc1", "SUBJECT OF TEST": "human fibroblasts derived MMP-1 (type I collagenase) (Homo sapiens)", "inhibition at 10 µM / %": 45.8}
{"COMPOUND SMILES": "CC(C)CCC(=O)N[C@@H]1CCN(S(=O)(=O)c2cccc(-c3ccc(O)cc3)c2)[C@@H](C(=O)NO)C1", "SUBJECT OF TEST": "human fibroblasts derived MMP-1 (type I collagenase) (Homo sapiens)", "inhibition at 10 µM / %": 53}
{"COMPOUND SMILES": "COc1ccc(-c2cccc(S(=O)(=O)N3CC[C@@H](NC(=O)CCC(C)C)C[C@@H]3C(=O)NO)c2)cc1", "SUBJECT OF TEST": "human fibroblasts derived MMP-1 (type I collagenase) (Homo sapiens)", "inhibition at 10 µM / %": 48.9}
{"COMPOUND SMILES": "COc1ccc(-c2ccc(S(=O)(=O)N3CC[C@H](NC(C)=O)C[C@@H]3C(=O)NO)cc2)cc1", "SUBJECT OF TEST": "human fibroblasts derived MMP-1 (type I collagenase) (Homo sapiens)", "inhibition at 10 µM / %": 0}
{"COMPOUND SMILES": "COc1ccc(-c2ccc(S(=O)(=O)N3CC[C@@H](NC(=O)c4ccccc4)C[C@@H]3C(=O)NO)cc2)cc1", "SUBJECT OF TEST": "human fibroblasts derived MMP-1 (type I collagenase) (Homo sapiens)", "inhibition at 10 µM / %": 57.6}
{"COMPOUND SMILES": "COc1ccc(C(=O)N[C@@H]2CCN(S(=O)(=O)c3ccc(-c4ccc(OC)cc4)cc3)[C@@H](C(=O)NO)C2)cc1", "SUBJECT OF TEST": "human fibroblasts derived MMP-1 (type I collagenase) (Homo sapiens)", "inhibition at 10 µM / %": 35.5}
{"COMPOUND SMILES": "COc1ccc(-c2ccc(S(=O)(=O)N3CC[C@@H](NCCCC(C)C)C[C@@H]3C(=O)NO)cc2)cc1", "SUBJECT OF TEST": "human fibroblasts derived MMP-1 (type I collagenase) (Homo sapiens)", "inhibition at 10 µM / %": 44.6}

P: O=C(N[C@@H]1CCN(S(=O)(=O)c2ccc(-c3ccc(Cl)cc3)cc2)[C@@H](C(=O)NO)C1)c1ccccn1
Q: CC(C)CCC(=O)N[C@@H]1CCN(S(=O)(=O)c2ccc([N+](=O)[O-])cc2)[C@@H](C(=O)NO)C1
Choose between P and Q : whose measured inhibition at 10 µM value is numerically larger? Your choice should be expressed through its label.
P
